Where do the numbers come from? From the METLIN SMRT retention time set (Domingo-Almenara et al. 2019).

assay: gradient 5% acetonitrile 3 min, to 50% in 2 min, to 85% in 15 min, held 3 min, 100 µL/min; details: column: Zorbax Extend-C18 2.1 x 50 mm; eluents: water / acetonitrile, 0.1% formic acid
Classification field: enter True for RP-LC retention time values not below 900 s, False for values below it.

Past entries and their recorded results:
Molecule	Discrete Label
COc1nc2ccccc2nc1N1CCCC(C(=O)Nc2ccc(Cl)cc2)C1 (configuration not stated)	True
COc1cccc(OC)c1CN1CC[C@@H]2CN(S(C)(=O)=O)[C@@H]2C1	False
COc1ccc(N(Cc2nnc3n2CCCCC3)C(=O)Nc2cccc(OC)c2)cc1	False
CC(C)Oc1ccc(CN2CCC(C)(c3noc(C4CCOCC4)n3)CC2)cc1	False

Req: Could you tell me if the measured RP-LC retention time of COc1ccc(NC(=O)N2CCCC(C)(C(=O)NCc3ccccc3)C2)cc1OC (configuration not stated) reaches 900 s or more?
Resp: False

Req: Could you tell me if the measured RP-LC retention time of COc1ccc(-c2nc(C3CC(=O)N(c4ccc(OC)c(OC)c4)C3)no2)cc1OC (configuration not stated) reaches 900 s or more?
Resp: False

---

experiment: gradient 5% acetonitrile 3 min, to 50% in 2 min, to 85% in 15 min, held 3 min, 100 µL/min; details: column: Zorbax Extend-C18 2.1 x 50 mm; eluents: water / acetonitrile, 0.1% formic acid
One threshold, 900 s, splits the recorded RP-LC retention time values: lower ones are True, equal or higher ones are False.

Compound	Discrete Label
CC(=O)c1cccc(NC(=O)c2cccc3ccccc23)c1	True
CCc1nc2ccc(CCC(=O)NCCCc3ccccc3)cc2[nH]1	True
CC(C)N1CCN(S(=O)(=O)c2cc(-c3nnc(C4CC4)o3)co2)CC1	True
CCOc1ccc(NC(=O)N2CCC(c3cc(N)on3)CC2)cc1	True
CCn1ccc2cc(S(=O)(=O)N3CCCC(C(=O)NCCCc4ccccc4)C3)ccc21 (stereo not given)	False

Req: In the record for O=C(Cc1cccs1)N1CCc2nn(CC3CC3)c(=O)n2CC1 , is RP-LC retention time less than 900 s?
Resp: True

Req: In the record for CCOc1ccccc1-c1nc(-c2cn(Cc3cccc(F)c3)nn2)no1 , is RP-LC retention time less than 900 s?
Resp: False

---

assay: gradient 5% acetonitrile 3 min, to 50% in 2 min, to 85% in 15 min, held 3 min, 100 µL/min; details: column: Zorbax Extend-C18 2.1 x 50 mm; eluents: water / acetonitrile, 0.1% formic acid
Labels assigned by RP-LC retention time range: low: < 700 s; medium: ≥ 700 s and < 800 s; high: ≥ 800 s

Past entries and their recorded results:
Molecule	Discrete Label
CCc1ccc(NC(=O)C2CC(=O)N(CCc3c[nH]c4ccc(F)cc34)C2)cc1 (stereo unspecified)	high
CCCn1c(=O)sc2cc(S(=O)(=O)N3CCC(C(=O)Nc4ccc(Cl)cc4)CC3)ccc21	high
CCOc1ccc(NC(=O)N2CCN(c3cnn4c(C)nnc4c3)CC2)cc1	low

Req: For this molecule, which bin applies? COc1cccc(S(=O)(=O)N2CCCN(C3CCN(Cc4ccccc4)C3=O)CC2)c1 (stereo unspecified)
Resp: low

Req: For this molecule, which bin applies? O=C(c1ccc(Cl)nc1)c1cccs1
Resp: high

Req: For this molecule, which bin applies? Cc1ccc(N2CCN(c3nc(C(=O)O)cs3)CC2)cc1
Resp: medium

Req: For this molecule, which bin applies? CCn1cc(CCNC(=O)Nc2ccsc2C(=O)OC)c2cccnc21
Resp: medium

Req: For this molecule, which bin applies? Cc1ccc2c(Nc3ccc4c(c3)OCCO4)c(C(=O)N3CCCCC3C)cnc2n1 (stereo unspecified)
Resp: low

Req: For this molecule, which bin applies? COC(=O)CNC(=O)N1c2ccccc2CC1c1nc(C(C)C)no1 (stereo unspecified)
Resp: high

Req: For this molecule, which bin applies? O=C(CCc1c(-c2ccc(Cl)cc2)nc2ccccn12)N1CCOCC1
Resp: low

Req: For this molecule, which bin applies? COc1cccc(-c2noc(Cn3c(=O)n(-c4ccc(C)cc4)c(=O)c4sccc43)n2)c1
Resp: high

Req: For this molecule, which bin applies? COC(=O)c1ccc(Cl)cc1NC(=O)NCCCn1c(C(F)(F)F)nc2cccnc21
Resp: high

---

# key: entry, value: RP-LC retention time
assay: gradient 5% acetonitrile 3 min, to 50% in 2 min, to 85% in 15 min, held 3 min, 100 µL/min; conditions: column: Zorbax Extend-C18 2.1 x 50 mm; eluents: water / acetonitrile, 0.1% formic acid
Please give a number only; it is taken to be in s.

Req: For Cc1cc(NC(=O)c2nc(C(C)C)oc2C)ccc1F , what is its reported RP-LC retention time?
Resp: 1140

Req: For Cc1ccc(C)c(NC(=O)Cn2cnc3nc(N4CCCC(C(=O)NC5CC5)C4)sc3c2=O)c1 (stereo not drawn) , what is its reported RP-LC retention time?
Resp: 683

Req: For O=C(Nc1ccc(F)c(Cl)c1)NC1CCCN(c2cc(-c3ccncc3)[nH]n2)C1 (stereo not drawn) , what is its reported RP-LC retention time?
Resp: 657

Req: For O=C(c1ccc2c(c1)OCO2)N1CCC2(CC1)NC(=O)N(Cc1ccc(Cl)cc1)C2=O , what is its reported RP-LC retention time?
Resp: 811

Req: For COc1ccc(-c2noc(CCC(=O)O)n2)cc1 , what is its reported RP-LC retention time?
Resp: 693

Req: For CN1CCCn2cc(S(=O)(=O)NCc3ccccc3Cl)cc2C1=O , what is its reported RP-LC retention time?
Resp: 704

Req: For CCCc1ccc(S(=O)(=O)N2CCc3c(c(-c4nnc(-c5ccc(C)cc5)o4)nn3C)C2)cc1 , what is its reported RP-LC retention time?
Resp: 1160

Req: For CCOc1ccc(CNC(=O)C2CCN(S(=O)(=O)N(CC(C)C)CC(C)C)CC2)cc1OC , what is its reported RP-LC retention time?
Resp: 1040

Req: For Cc1ccc(C)c(-c2nc3ccccc3c(C(=O)N3CCN(c4ncccn4)CC3)c2C)c1 , what is its reported RP-LC retention time?
Resp: 903

Req: For COc1ccccc1NC(=O)N1CCCC1c1nncn1C1CCCC1 (stereo not drawn) , what is its reported RP-LC retention time?
Resp: 697

Req: For Cc1ccc(CNC(=O)C2(C)CCN(C(=O)Nc3ccc4c(c3)OCCO4)CC2)cc1 , what is its reported RP-LC retention time?
Resp: 751

Req: For CC(C)c1nnc(-c2ccc(S(=O)(=O)N3CCN(C4CCCCC4)CC3)o2)o1 , what is its reported RP-LC retention time?
Resp: 644

Req: For CC1CCN(C2=NCCN2C(=O)c2ccc(F)cc2)CC1 , what is its reported RP-LC retention time?
Resp: 661

---

assay: gradient 5% acetonitrile 3 min, to 50% in 2 min, to 85% in 15 min, held 3 min, 100 µL/min; conditions: column: Zorbax Extend-C18 2.1 x 50 mm; eluents: water / acetonitrile, 0.1% formic acid
Labels assigned by RP-LC retention time range: bottom bin (below 700 s), middle bin (700 s to below 900 s), top bin (900 s or more)

Req: For this molecule, which bin applies? CS(=O)(=O)c1ccccc1-c1nnc(NC(=O)c2cccc(N3C(=O)CCC3=O)c2)o1
Resp: bottom bin

Req: For this molecule, which bin applies? O=C(NC1CCN(c2cc(-c3cccs3)[nH]n2)C1)c1ccncc1 (stereo unspecified)
Resp: bottom bin

---

# key: entry, value: RP-LC retention time
test: gradient 5% acetonitrile 3 min, to 50% in 2 min, to 85% in 15 min, held 3 min, 100 µL/min; settings: column: Zorbax Extend-C18 2.1 x 50 mm; eluents: water / acetonitrile, 0.1% formic acid
Please give a number only; it is taken to be in s.

// worked examples, RP-LC retention time included
Smiles Str	Reported Measurement
Cc1cccc(S(=O)(=O)N2CCC(OCc3nc(C)no3)CC2)c1	886
C=C1C(=O)[C@]23[C@H](O)[C@H]1CC[C@H]2[C@@]12CO[C@]3(O)[C@@H](O)[C@@H]1C(C)(C)CC[C@@H]2O	794
COc1ccc(Cl)cc1NC(=O)CSc1nnc2c3cc(-c4ccc(F)cc4)nn3ccn12	996
CN1C(=O)CCc2cc(NC(=O)Cc3c(F)cccc3Cl)ccc21	784
O=C(NCC1CCOCC1)c1n[nH]c2ccccc12	654

Req: For CCN(C(=O)Cn1nc2cc(C)nc(Nc3ccc(C)c(C)c3)n2c1=O)c1ccccc1 , what is its reported RP-LC retention time?
Resp: 1230

Req: For Cc1nn(-c2ccc(-c3ccccc3)nn2)c(C)c1S(=O)(=O)N1CCN(C)CC1 , what is its reported RP-LC retention time?
Resp: 644

Req: For CC(C)n1cnc(S(=O)(=O)N2CCC(C(=O)Nc3cccc(C(F)(F)F)c3)CC2)c1 , what is its reported RP-LC retention time?
Resp: 862

Req: For CCN1CCN(C(=O)c2cnn(-c3cc(-c4nc(C)no4)ccn3)c2C)CC1 , what is its reported RP-LC retention time?
Resp: 585

Req: For CCc1ccc(S(=O)(=O)N2C[C@@H](F)C[C@H]2C(=O)N2CCCCC2)cc1 , what is its reported RP-LC retention time?
Resp: 866
